- METHOD_SUMMARY: isobaric coefficient of expansion
- RUN_CONDITIONS: 318.15 K; 5000 kPa; Liquid; Microcalorimeter
We begin with a simple list: items and their reported isobaric coefficient of expansion.

| COMPOUND | isobaric coefficient of expansion |
| --- | --- |
| CCCCCC[n+]1ccn(C)c1.O=S(=O)([N-]S(=O)(=O)C(F)(F)F)C(F)(F)F | 0.000654 1/K |
| CCCCCCn1cc[n+](C)c1.F[B-](F)(F)F [1-hexyl-3-methylimidazolium tetrafluoroborate] | 0.000599 1/K |
| CCCCCCCC[n+]1ccn(C)c1.F[B-](F)(F)F [1-methyl-3-octylimidazolium tetrafluoroborate] | 0.000599 1/K |

May I ask what isobaric coefficient of expansion has been recorded for CCCC[n+]1cccc(C)c1.F[B-](F)(F)F [1-butyl-3-methylpyridinium tetrafluoroborate] ?
0.00058 1/K

Please report the recorded isobaric coefficient of expansion for CCn1cc[n+](C)c1.O=S(=O)([N-]S(=O)(=O)C(F)(F)F)C(F)(F)F .
0.000649 1/K

Consider the compound shown here: CCn1cc[n+](C)c1.F[B-](F)(F)F [1-ethyl-3-methylimidazolium tetrafluoroborate] What is its recorded isobaric coefficient of expansion?
0.000589 1/K

Value source: the NIST ThermoML archive (doi:10.1021/je900482x)
